Tested on: TTR
Experiment: TTR editing in primary human hepatocytes transfected with Spy Cas9 protein and sgRNAs (Table 12)
Format: cell-based
Details: primary human hepatocytes transfected with Spy Cas9 protein (RNP) and sgRNAs
Strand notation (5' to 3'): a small letter for the sugar, then the base; units joined by * are phosphorothioate-linked, units joined directly phosphodiester-linked; [ ] holds rarer units or linkages, { } end groups; capitals alone tell only the bases. m = 2'-O-methyl; r = 2'-OH (RNA)
This section presents molecules with their documented Avg % Edit values.
# unit: % | format: bare number

- molecule: "G000490: TTR sgRNA modified sequence, Human, SEQ ID No. 97; guide sequence of CR003366 (nucleic acid) guide: mA*mA*mA*rUrArGrArCrArCrCrArArArUrCrUrUrArCrGrUrUrUrUrArGrAmGmCmUmAmGmAmAmAmUmAmGmCrArArGrUrUrArArArArUrArArGrGrCrUrArGrUrCrCrGrUrUrArUrCrAmAmCmUmUmGmAmAmAmAmAmGmUmGmGmCmAmCmCmGmAmGmUmCmGmGmUmGmCmU*mU*mU*mU"
  Avg % Edit, %: 55.90

Quick check: Avg % Edit of G000496: TTR sgRNA modified sequence, Human, SEQ ID No. 103; guide sequence of CR005304 (nucleic acid) guide: mG*mG*mC*rCrGrUrGrCrArUrGrUrGrUrUrCrArGrArArGrUrUrUrUrArGrAmGmCmUmAmGmAmAmAmUmAmGmCrArArGrUrUrArArArArUrArArGrGrCrUrArGrUrCrCrGrUrUrArUrCrAmAmCmUmUmGmAmAmAmAmAmGmUmGmGmCmAmCmCmGmAmGmUmCmGmGmUmGmCmU*mU*mU*mU ? 72.33

Now the molecule G000483: TTR sgRNA modified sequence, Human, SEQ ID No. 90; guide sequence of CR005298 (nucleic acid) guide: mU*mC*mC*rArCrUrCrArUrUrCrUrUrGrGrCrArGrGrArGrUrUrUrUrArGrAmGmCmUmAmGmAmAmAmUmAmGmCrArArGrUrUrArArArArUrArArGrGrCrUrArGrUrCrCrGrUrUrArUrCrAmAmCmUmUmGmAmAmAmAmAmGmUmGmGmCmAmCmCmGmAmGmUmCmGmGmUmGmCmU*mU*mU*mU 47.90

The values you see were collected from patent US11795460B2.
